Each recorded value in this set is attributed to PubChem BioAssay.

# key: entry, value: viability
test: SK-BR-3 cell growth inhibitors, pilot screen, 24 h, human (AID 572); details: SK-BR-3 viability, CellTiter-Glo luminescence, at 10 µM, stronger effect = lower value;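 also: compound exposure lasted between 18 and 24 h rather than exactly 24 h; 100% = carrier-treated control wells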
measurement_type: viability (%)

> print(dat)
                                    compound  value.units  quantitative.readout
 1     CN1CCN(c2ncnc3c2cnn3-c2ccc(Cl)cc2)CC1            %                   109
 2  O=C(NCC1CCCO1)c1cccc(N2C(=O)C3C4C=CC(C4)C3C2=O)c1 (configuration not stated)            %                   110
 3              NC(N)=NC(=O)c1nc(Cl)c(N)nc1N            %                   117
 4  Cn1c2c(c(=O)[nH]c1=O)C(NC(=O)c1ccco1)(C(F)(F)F)C(=O)N2 (configuration not stated)            %                   112
 5  O=C(CN1C(=O)CCSc2ccccc21)Nc1ccc2c(c1)OCO2            %                   124
 6  COc1ccc(CN(CC(=O)NCC2CCCO2)C(=O)CCC(=O)Nc2cc(C)on2)cc1 (configuration not stated)            %                    77
 7    O=C1CCc2cc(OCCCCc3nnnn3C3CCCCC3)ccc2N1            %                    98
 8     COC(=O)[C@H](CCSC)NC(=O)Nc1cc(C)ccc1C            %                   124
 9   O=C(NCc1ccccc1)N[C@@H](Cc1ccccc1)C(=O)O            %                    96
10  CC1(C)CN=C(N2CCN(c3ncnc4sc5c(c34)CCCC5)CC2)S1            %                    72
11  Nc1ncnc2c1ncn2[C@@H]1O[C@H](CO)[C@@H](O)[C@H]1O            %                   105
12  CSc1ncc(Cl)c(C(=O)Nc2ccc(S(=O)(=O)N3CCOCC3)cc2)n1            %                    85
13  CCOC(=O)c1c(C)oc2c1c1c(c3ccccc32)OCN(Cc2cccnc2)C1            %                  83.5
14  Cc1ccc(Cn2c(SCC(N)=O)nc3c2c(=O)n(C)c(=O)n3C)cc1            %                   106
15         Cc1cc(-c2ccccc2)nc2cc(C(N)=O)nn12            %                   102
16  COCC(=O)n1nc(NCc2ccc(OC)cc2)nc1NCc1ccc(OC)cc1            %                   116
17  CCC(CCC(=O)Nc1cccc(C(=O)O)c1)C(=O)O (configuration not stated)            %                    62
18  CCN1C(=O)C2(C(C#N)=C(N)Oc3n[nH]c(C(C)C)c32)c2ccccc21 (configuration not stated)            %                   113
19         Fc1ccccc1Cn1nnc2c(-n3ccnc3)ncnc21            %                   115
20         Cc1cnc(C(=O)Nc2ccccc2-n2cccc2)cn1            %                    94
21  CC(C)(C)c1ccc2c(c1)OCC(C(=O)O)O2 (configuration not stated)            %                  99.5
22  COc1cc([C@@H]2[C@H]3CN(C)CC=C3C(C#N)=C(N)C2(C#N)C#N)cc2c1OCO2            %                   101
23  O=C(CN(Cc1ccc(F)cc1)C(=O)c1ccco1)NCc1ccc(F)cc1            %                   104
24  COc1cc(NC(=O)Nc2cccc(C(C)=O)c2)cc(OC)c1OC            %                   109
25           COCCn1nnnc1CN1CCC(Cc2ccccc2)CC1            %                   134
26  CCOC(=O)N1CCN(C(=O)c2ccc(N3C(=O)CCC3=O)cc2)CC1            %                   110
27  O=C(NCC(=O)N(c1cccnc1)C(C(=O)NC1CCCCC1)c1cccnc1)c1ccco1 (configuration not stated)            %                   111
